- assay-procedure: Antiviral activity on HIV-LAI wild type
- Format: cell-based, HIV-1
- run-parameters: HIV-LAI wild type test
test-readout: CC50

For the compound shown here, CCc1c(C)[nH]c(=O)c(N(C)C)c1Cc1cc(C)cc(C)c1 , give the reported CC50.
> 100 µM

====

- Test system: HIV-1 strain IIIB
- assay-procedure: Retrovirucidal effect on HIV-1 strain IIIB (Table 3)
- Format: cell-based
- run-parameters: pIC50=-log IC50, IC50 in M
Please respond with y when measured HIV1 pIC50 strain IIIB is strictly beneath 7, and with n in all other cases.

| compound | assigned-label |
| --- | --- |
| CCCc1cccc(Cc2c(CC)c(C)[nH]c(=O)c2N)c1 [Compound 103] | y |
| CCc1c(C)[nH]c(=O)c(N)c1Cc1ccc(Cl)cc1 [Compound 54] | y |
| Cc1cc(C)cc(Cc2c(C)c(C(C)C)[nH]c(=O)c2N)c1 [Compound 118] | y |

Query compound follows.
Report whether reported HIV1 pIC50 strain IIIB is lower than 7 (strictly) for CCc1c(Cc2cc(C)cc(C)c2)c(N(C)C)c(=O)n(C)c1C [Compound 11]
n

Reference source for all entries: patent US6683079B2
